MEASURED PARAMETER: melting point

Example cases with answers are listed next.
# MOLECULE, melting point
records = [
    ("CC1CCCN(C2=CC(=O)N(c3ccc(Cl)cc3)C2)C1 (stereo not shown) [Compound 19]", "188 to 189 °C"),
    ("O=C1C=C(N2CCCC2)CN1c1ccc(Cl)cc1 [Compound 17]", "223 to 227 °C"),
    ("COc1cc(N2CC(N3CCOCC3)=CC2=O)cc(OC)c1OC [Compound 11]", "179 to 182 °C"),
]

// each listed molecule needs a value for melting point
1. COc1ccc(N2CC(N3CCOCC3)=CC2=O)cc1 [Compound 7]
2. O=C1C=C(N2CCCCC2)CN1c1ccc(F)c(Cl)c1 [Compound 16]
3. Cc1ccc(N2CC(N3CCCCC3)=CC2=O)cc1 [Compound 15]
4. COCCN(CCOC)C1=CC(=O)N(c2ccc(Cl)cc2)C1 [Compound 24]

Response given:
1: 198 to 202 °C; 2: 195 to 196 °C; 3: 174 to 177 °C; 4: 189 to 195 °C
